Attribute: IC50
System: MDA-MB-231 breast cancer cells
Assay: Proliferation inhibitory activity assay against MDA-MB-231 breast cancer cells
Assay type: cell-based
Settings: Homo sapiens, 72 hours, CellTiter Glo, relative IC50

For orientation, consider the following solved cases.
In plain terms, Fc1ccc2nc(CNc3cc(N4CCOCC4)nn4c(C#CC5CC5)cnc34)[nH]c2c1F [Example 25] has a documented IC50 of > 500 nM

In plain terms, N#CC1CN(c2cc(NCc3nc4cc(Cl)c(Cl)cc4[nH]3)c3ncc(C(F)(F)F)n3n2)C1 [Example 30] has a documented IC50 of ≤ 50 nM

In plain terms, FC(F)(F)c1cnc2c(NCc3cc4ncccc4[nH]3)cc(N3CCOCC3)nn12 [Example 87] has a documented IC50 of 50 to 500 nM

In plain terms, FC(F)(F)c1cnc2c(NCc3nc4cc(Cl)c(Cl)cc4[nH]3)cc(N3CC(NC4CC4)C3)nn12 [Example 58] has a documented IC50 of ≤ 50 nM

In plain terms, N#CC1CN(c2cc(NCc3nc4ccc(F)c(F)c4[nH]3)c3ncc(C(F)(F)F)n3n2)C1 [Example 54] has a documented IC50 of 50 to 500 nM

Others:
In plain terms, FC(F)(F)c1ccc2[nH]c(CNc3cc(N4CCOCC4)nn4c(C(F)(F)F)cnc34)nc2c1 [Example 78] has a documented IC50 of 50 to 500 nM

In plain terms, N#CC1CCN(c2cc(NCc3nc4cc(Cl)c(Cl)cc4[nH]3)c3ncc(C(F)(F)F)n3n2)CC1 [Example 44] has a documented IC50 of ≤ 50 nM

In plain terms, C#Cc1cnc2c(NCc3nc4ccc(F)c(F)c4[nH]3)cc(-c3cnc(N)nc3)nn12 [Example 22] has a documented IC50 of 50 to 500 nM

---

Target: CDK12 (Homo sapiens)
Sequence (Q9NYV4 whole entry, species assumed): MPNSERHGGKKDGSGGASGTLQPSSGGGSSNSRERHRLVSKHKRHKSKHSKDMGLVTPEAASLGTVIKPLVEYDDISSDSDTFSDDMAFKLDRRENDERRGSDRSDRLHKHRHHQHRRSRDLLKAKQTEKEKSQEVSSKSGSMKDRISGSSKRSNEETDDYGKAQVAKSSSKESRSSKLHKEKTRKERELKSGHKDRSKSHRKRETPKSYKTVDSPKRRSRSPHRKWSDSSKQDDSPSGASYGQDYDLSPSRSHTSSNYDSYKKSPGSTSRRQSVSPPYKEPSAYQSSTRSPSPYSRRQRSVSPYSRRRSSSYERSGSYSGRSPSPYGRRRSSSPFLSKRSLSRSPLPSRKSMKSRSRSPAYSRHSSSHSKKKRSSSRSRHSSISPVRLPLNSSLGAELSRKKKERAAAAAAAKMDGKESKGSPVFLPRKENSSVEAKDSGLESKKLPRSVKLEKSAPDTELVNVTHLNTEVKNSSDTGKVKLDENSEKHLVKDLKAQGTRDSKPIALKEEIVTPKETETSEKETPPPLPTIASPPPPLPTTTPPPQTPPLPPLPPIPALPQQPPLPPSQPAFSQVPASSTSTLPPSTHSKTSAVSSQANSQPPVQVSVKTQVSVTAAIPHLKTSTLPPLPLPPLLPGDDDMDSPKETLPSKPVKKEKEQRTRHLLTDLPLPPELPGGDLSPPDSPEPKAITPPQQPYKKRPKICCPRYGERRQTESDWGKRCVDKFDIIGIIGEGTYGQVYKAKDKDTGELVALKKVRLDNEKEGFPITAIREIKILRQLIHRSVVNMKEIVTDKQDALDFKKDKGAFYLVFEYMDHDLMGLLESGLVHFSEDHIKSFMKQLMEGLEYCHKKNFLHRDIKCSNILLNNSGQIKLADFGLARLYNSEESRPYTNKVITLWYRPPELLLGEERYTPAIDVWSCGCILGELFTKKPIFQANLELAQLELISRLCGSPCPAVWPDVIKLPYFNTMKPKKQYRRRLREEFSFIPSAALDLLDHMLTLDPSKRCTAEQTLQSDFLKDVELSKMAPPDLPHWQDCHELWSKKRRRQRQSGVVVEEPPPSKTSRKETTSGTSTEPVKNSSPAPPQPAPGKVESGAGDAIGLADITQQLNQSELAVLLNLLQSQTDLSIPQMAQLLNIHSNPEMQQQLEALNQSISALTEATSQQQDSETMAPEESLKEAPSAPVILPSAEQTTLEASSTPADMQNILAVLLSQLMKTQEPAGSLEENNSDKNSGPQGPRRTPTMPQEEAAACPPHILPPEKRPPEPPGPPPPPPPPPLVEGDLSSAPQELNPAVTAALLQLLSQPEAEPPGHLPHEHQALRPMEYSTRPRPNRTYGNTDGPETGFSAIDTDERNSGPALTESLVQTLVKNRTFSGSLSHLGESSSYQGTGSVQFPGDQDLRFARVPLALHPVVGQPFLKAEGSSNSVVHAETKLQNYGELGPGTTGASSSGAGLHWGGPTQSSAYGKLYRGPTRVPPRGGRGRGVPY
Sequence (O75909 whole entry partner, species assumed): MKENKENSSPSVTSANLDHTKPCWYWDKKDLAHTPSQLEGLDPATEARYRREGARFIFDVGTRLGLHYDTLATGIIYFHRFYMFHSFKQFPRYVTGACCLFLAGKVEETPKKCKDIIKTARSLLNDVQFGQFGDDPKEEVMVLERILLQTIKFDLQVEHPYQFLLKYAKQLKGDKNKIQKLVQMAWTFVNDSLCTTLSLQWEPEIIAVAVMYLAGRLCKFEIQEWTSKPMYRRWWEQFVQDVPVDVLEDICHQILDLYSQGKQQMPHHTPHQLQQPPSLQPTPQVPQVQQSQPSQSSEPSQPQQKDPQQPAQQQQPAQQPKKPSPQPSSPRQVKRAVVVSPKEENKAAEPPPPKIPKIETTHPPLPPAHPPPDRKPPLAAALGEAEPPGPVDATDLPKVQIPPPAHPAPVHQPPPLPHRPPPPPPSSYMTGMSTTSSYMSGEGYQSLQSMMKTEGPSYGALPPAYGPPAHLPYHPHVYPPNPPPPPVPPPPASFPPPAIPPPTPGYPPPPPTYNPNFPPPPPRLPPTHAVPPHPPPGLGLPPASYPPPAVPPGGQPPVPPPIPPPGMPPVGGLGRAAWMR
Assay: Cellular CDK12 inhibitory activity assay (Ser2 phosphorylation of RNA polymerase II subunit B1 CTD in MDA-MB-231 cells)
Format: cell-based
Design: using MDA-MB-231 breast cancer cells; endogenous in cells; host or cells: MDA-MB-231
Conditions: MDA-MB-231 cells, 6 hours treatment; read-out: pRpbl CTD S2 IC50
parameter: IC50

In plain terms, "FC(F)(F)c1cnc2c(NCc3nc4cc(Cl)c(Cl)cc4[nH]3)cc(N3C4CNCC3C4)nn12" has a documented IC50 of < 300 nM

In plain terms, "FC(F)(F)c1cnc2c(NCc3nc4cc(Cl)c(Cl)cc4[nH]3)cc(N3CCOCC3)nn12" has a documented IC50 of < 300 nM

Others:
In plain terms, "Fc1ccc2nc(CNc3cc(N4CCN(C5CC5)CC4)nn4c(C(F)(F)F)cnc34)[nH]c2c1F" has a documented IC50 of 300 to 3000 nM

---

Target: UniProtKB Q9NYV4
Assay: CDK12 kinase inhibitory activity assay (33P-ATP filter binding)
Type: biochemical
Conditions: kinase reaction 120 minutes, 33P-gamma-ATP; read-out: CDK12 IC50
Method: Before initiating the CDK12 and CDK13 kinase reactions, each Example compound was dissolved and diluted in DMSO as a solvent across 9 concentration ranges at room temperature. […] Unreacted ^33P-ATP was removed by washing with 0.75 % phosphoric acid, and then the radioactive phosphorylated substrate remaining on the filter paper was measured. Kinase activity data were expressed as a percentage of the kinase activity remaining in the test sample compared to a DMSO control group. […]
pIC50: −log10 of the molar value.
parameter: pIC50

For orientation, consider the following solved cases.
Lab note: molecule "CN1CCN(c2cc(NCc3nc4cc(Cl)c(Cl)cc4[nH]3)c3ncc(C(F)(F)F)n3n2)CC1" tested on UniProtKB Q9NYV4; recorded pIC50 was > 7.00

Lab note: molecule "C#Cc1cnc2c(NCc3nc4ccc(F)c(F)c4[nH]3)cc(-c3cnc(N)nc3)nn12" tested on UniProtKB Q9NYV4; recorded pIC50 was > 7.00

Lab note: molecule "Fc1cc2nc(CNc3cc(N4CCNCC4)nn4c(C(F)(F)F)cnc34)[nH]c2cc1F" tested on UniProtKB Q9NYV4; recorded pIC50 was > 7.00

Lab note: molecule "FC(F)(F)c1cnc2c(NCc3nc4cc(Cl)c(Cl)cc4[nH]3)cc(N3CC4(CNC4)C3)nn12" tested on UniProtKB Q9NYV4; recorded pIC50 was 6.30 to 7.00

Lab note: molecule "Fc1ccc2nc(CNc3cc(N4CCOCC4)nn4c(C#CC5CC5)cnc34)[nH]c2c1F" tested on UniProtKB Q9NYV4; recorded pIC50 was < 6.30

Lab note: molecule OC1CC2CCC(C1)N2c1cc(NCc2nc3ccc(F)c(F)c3[nH]2)c2ncc(C(F)(F)F)n2n1 (stereo not shown) tested on UniProtKB Q9NYV4; recorded pIC50 was 6.30 to 7.00

Lab note: molecule "N#CC1CCN(c2cc(NCc3nc4cc(Cl)c(Cl)cc4[nH]3)c3ncc(C(F)(F)F)n3n2)CC1" tested on UniProtKB Q9NYV4; recorded pIC50 was 6.30 to 7.00

Lab note: molecule "NC(=O)N1CCN(c2cc(NCc3nc4cc(Cl)c(Cl)cc4[nH]3)c3ncc(C(F)(F)F)n3n2)CC1" tested on UniProtKB Q9NYV4; recorded pIC50 was > 7.00

Lab note: molecule "Cc1ccnc2[nH]c(CNc3cc(N4CCOCC4)nn4c(C(F)(F)F)cnc34)nc12" tested on UniProtKB Q9NYV4; recorded pIC50 was > 7.00

Lab note: molecule "O=C(O)C1CN(c2cc(NCc3nc4cc(Cl)c(Cl)cc4[nH]3)c3ncc(C(F)(F)F)n3n2)C1" tested on UniProtKB Q9NYV4; recorded pIC50 was 6.30 to 7.00

Others:
Lab note: molecule "NC(=O)C1CCN(c2cc(NCc3nc4cc(Cl)c(Cl)cc4[nH]3)c3ncc(C(F)(F)F)n3n2)CC1" tested on UniProtKB Q9NYV4; recorded pIC50 was > 7.00

Lab note: molecule "COc1cc2nc(CNc3cc(N4CCOCC4)nn4c(C(F)(F)F)cnc34)[nH]c2cc1Cl" tested on UniProtKB Q9NYV4; recorded pIC50 was > 7.00

Lab note: molecule "C[C@@H]1CN(c2cc(NCc3nc4cc(Cl)c(Cl)cc4[nH]3)c3ncc(C(F)(F)F)n3n2)C[C@H](C)N1" tested on UniProtKB Q9NYV4; recorded pIC50 was > 7.00

Lab note: molecule "FC(F)(F)c1ccc2[nH]c(CNc3cc(N4CCOCC4)nn4c(C(F)(F)F)cnc34)nc2c1" tested on UniProtKB Q9NYV4; recorded pIC50 was > 7.00

Lab note: molecule "FC(F)(F)c1cnc2c(NCc3nc4ccncc4[nH]3)cc(N3CCOCC3)nn12" tested on UniProtKB Q9NYV4; recorded pIC50 was > 7.00

Lab note: molecule "FC(F)(F)c1cnc2c(NCc3nc4cc(Cl)c(Cl)cc4[nH]3)cc(N3CCNCC3)nn12" tested on UniProtKB Q9NYV4; recorded pIC50 was > 7.00

---

Attribute: pIC50
Target: CDK13 (Homo sapiens, UniProt Q14004)
Sequence (Q14004 whole entry, species assumed, one chain of several): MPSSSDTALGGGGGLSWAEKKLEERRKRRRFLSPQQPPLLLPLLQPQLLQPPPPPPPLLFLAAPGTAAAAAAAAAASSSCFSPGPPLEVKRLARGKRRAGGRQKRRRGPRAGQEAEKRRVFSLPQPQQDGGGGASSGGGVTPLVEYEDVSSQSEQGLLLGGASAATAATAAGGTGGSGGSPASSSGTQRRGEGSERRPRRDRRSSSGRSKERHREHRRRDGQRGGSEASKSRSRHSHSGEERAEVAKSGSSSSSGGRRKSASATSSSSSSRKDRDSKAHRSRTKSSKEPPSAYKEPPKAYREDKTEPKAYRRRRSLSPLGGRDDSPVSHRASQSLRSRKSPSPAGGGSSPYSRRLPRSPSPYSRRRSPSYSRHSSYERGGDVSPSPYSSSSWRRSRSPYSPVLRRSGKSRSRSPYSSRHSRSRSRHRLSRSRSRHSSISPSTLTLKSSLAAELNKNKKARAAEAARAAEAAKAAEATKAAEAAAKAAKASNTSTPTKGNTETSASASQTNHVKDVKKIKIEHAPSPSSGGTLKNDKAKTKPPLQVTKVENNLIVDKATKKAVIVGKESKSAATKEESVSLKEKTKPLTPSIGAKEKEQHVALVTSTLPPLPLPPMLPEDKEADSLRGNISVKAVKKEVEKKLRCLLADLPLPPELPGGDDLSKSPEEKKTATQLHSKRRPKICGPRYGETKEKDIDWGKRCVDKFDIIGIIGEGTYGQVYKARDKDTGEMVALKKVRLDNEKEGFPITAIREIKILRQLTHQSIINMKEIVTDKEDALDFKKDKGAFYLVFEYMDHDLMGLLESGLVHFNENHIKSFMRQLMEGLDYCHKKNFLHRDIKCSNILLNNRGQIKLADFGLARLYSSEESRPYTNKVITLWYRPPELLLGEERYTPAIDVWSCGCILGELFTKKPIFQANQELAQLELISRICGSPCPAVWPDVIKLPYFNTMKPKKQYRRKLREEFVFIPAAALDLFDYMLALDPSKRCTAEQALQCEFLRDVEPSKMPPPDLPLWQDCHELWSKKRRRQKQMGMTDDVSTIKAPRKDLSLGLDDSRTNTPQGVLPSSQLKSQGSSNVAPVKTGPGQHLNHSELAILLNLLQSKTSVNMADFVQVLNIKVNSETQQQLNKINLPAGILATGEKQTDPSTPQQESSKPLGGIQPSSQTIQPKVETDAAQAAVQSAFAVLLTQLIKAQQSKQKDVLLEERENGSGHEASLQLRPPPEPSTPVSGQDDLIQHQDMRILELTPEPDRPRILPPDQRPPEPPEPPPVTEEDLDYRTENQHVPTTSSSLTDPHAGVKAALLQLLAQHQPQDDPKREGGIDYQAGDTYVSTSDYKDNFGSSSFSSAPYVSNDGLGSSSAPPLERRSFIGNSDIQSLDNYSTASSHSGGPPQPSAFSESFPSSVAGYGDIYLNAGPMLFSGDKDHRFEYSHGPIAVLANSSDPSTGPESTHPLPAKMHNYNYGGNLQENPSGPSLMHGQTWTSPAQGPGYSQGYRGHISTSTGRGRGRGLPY
Experiment: CDK13 kinase inhibitory activity assay (33P-ATP filter binding)
Assay type: biochemical
Conditions: kinase reaction 120 minutes, 33P-gamma-ATP; read-out: CDK13 IC50
Experimental: Before initiating the CDK12 and CDK13 kinase reactions, each Example compound was dissolved and diluted in DMSO as a solvent across 9 concentration ranges at room temperature. […] Unreacted ^33P-ATP was removed by washing with 0.75 % phosphoric acid, and then the radioactive phosphorylated substrate remaining on the filter paper was measured. Kinase activity data were expressed as a percentage of the kinase activity remaining in the test sample compared to a DMSO control group. […]
pIC50: −log10 of the molar value.

For orientation, consider the following solved cases.
Lab note: molecule CC(=O)N1CCN(c2cc(NCc3nc4cc(Cl)c(Cl)cc4[nH]3)c3ncc(C(F)(F)F)n3n2)CC1 [Example 51] tested on CDK13 (Homo sapiens, UniProt Q14004); recorded pIC50 was > 7.00

Lab note: molecule Fc1ccc2nc(CNc3cc(N4CCOCC4)nn4c(C#CC5CC5)cnc34)[nH]c2c1F [Example 25] tested on CDK13 (Homo sapiens, UniProt Q14004); recorded pIC50 was < 6.30

Others:
Lab note: molecule Nc1ncc(-c2cc(NCc3nc4ccc(F)c(F)c4[nH]3)c3ncc(C(F)(F)F)n3n2)cn1 [Example 35] tested on CDK13 (Homo sapiens, UniProt Q14004); recorded pIC50 was > 7.00

---

Attribute: pIC50
System: MDA-MB-231 breast cancer cells
Experiment: Proliferation inhibitory activity assay against MDA-MB-231 breast cancer cells
Format: cell-based
Details: Homo sapiens, 72 hours, CellTiter Glo, relative IC50
Experimental: Experiments were performed using the MDA-MB-231 breast cancer cell line to measure the cell proliferation inhibitory ability of each Example compound. […] Luminescence signals were measured after inserting the 96-well plate into an Envision plate reader (PerkinElmer). Relative IC50 values were calculated by fitting a dose-response curve using XLfit (IDBS Ltd) software. […]
pIC50: −log10 of the molar value.

For orientation, consider the following solved cases.
In plain terms, "OC1CN(c2cc(NCc3nc4ccc(F)c(F)c4[nH]3)c3ncc(C(F)(F)F)n3n2)C1" has a documented pIC50 of ≥ 7.30

In plain terms, "CC(C)c1cnc2c(NCc3nc4ccc(F)c(F)c4[nH]3)cc(N3CCOCC3)nn12" has a documented pIC50 of 6.30 to 7.30

In plain terms, "Fc1ccc2nc(CNc3cc(N4CCOCC4)nn4c(I)cnc34)[nH]c2c1F" has a documented pIC50 of < 6.30

Others:
In plain terms, "Nc1ncc(-c2cc(NCc3nc4cc(Cl)c(Cl)cc4[nH]3)c3ncc(C(F)(F)F)n3n2)cn1" has a documented pIC50 of ≥ 7.30

In plain terms, "N[C@@H]1CCN(c2cc(NCc3nc4ccc(F)c(F)c4[nH]3)c3ncc(C(F)(F)F)n3n2)C1" has a documented pIC50 of ≥ 7.30

In plain terms, "Fc1ccc2nc(CNc3cc(N4CCC4)nn4c(C(F)(F)F)cnc34)[nH]c2c1F" has a documented pIC50 of ≥ 7.30

In plain terms, "O[C@@H]1CCN(c2cc(NCc3nc4cc(Cl)c(Cl)cc4[nH]3)c3ncc(C(F)(F)F)n3n2)C1" has a documented pIC50 of 6.30 to 7.30

In plain terms, N#CC1(O)CCN(c2cc(NCc3nc4cc(Cl)c(Cl)cc4[nH]3)c3ncc(C(F)(F)F)n3n2)C1 (stereo not shown) has a documented pIC50 of ≥ 7.30

In plain terms, "FC(F)(F)c1cnc2c(NCc3nc4ccccc4[nH]3)cc(N3CCOCC3)nn12" has a documented pIC50 of 6.30 to 7.30

In plain terms, "CN1CC2CC(C1)N2c1cc(NCc2nc3cc(Cl)c(Cl)cc3[nH]2)c2ncc(C(F)(F)F)n2n1" has a documented pIC50 of ≥ 7.30

In plain terms, "FC(F)(F)c1cnc2c(NCc3cc4ccccn4n3)cc(N3CCOCC3)nn12" has a documented pIC50 of < 6.30

In plain terms, "CN1C2CCC1CN(c1cc(NCc3nc4cc(Cl)c(Cl)cc4[nH]3)c3ncc(C(F)(F)F)n3n1)C2" has a documented pIC50 of ≥ 7.30

In plain terms, "Fc1ccc2nc(CNc3cc(N4CC5CCC(C4)N5)nn4c(C(F)(F)F)cnc34)[nH]c2c1F" has a documented pIC50 of ≥ 7.30

In plain terms, "CN1CC2CCC(C1)N2c1cc(NCc2nc3cc(Cl)c(Cl)cc3[nH]2)c2ncc(C(F)(F)F)n2n1" has a documented pIC50 of ≥ 7.30

In plain terms, "Fc1ccc2nc(CNc3cc(N4CCOCC4)nn4c(CC(F)(F)F)cnc34)[nH]c2c1F" has a documented pIC50 of 6.30 to 7.30

In plain terms, "Fc1ccc2nc(CNc3cc(N4CCOCC4)nn4c(C(F)(F)F)cnc34)[nH]c2c1F" has a documented pIC50 of ≥ 7.30
